Tested on: HS578T
method description: Cell viability, olaparib alone or with PHI-101 (Example 3)
Assay type: cell-based
run conditions: Homo sapiens, Hs-578T; HS578T (triple-negative); medium instead of PHI-101; 72 hours
metric name: IC50 (µM)
Write the answer as a number in µM, unit excluded.

(Q) Would you kindly share the measured IC50 for "O=C(c1cc(Cc2n[nH]c(=O)c3ccccc23)ccc1F)N1CCN(C(=O)C2CC2)CC1" ?
(A) 186
